Notes on IC50 obtained with SARS-CoV 3CL^pro (Severe acute respiratory syndrome coronavirus, UniProt P0C6X7).

{"molecule": "CC(C)=CCc1cc(C(=O)/C=C/c2ccc(O)cc2)c(O)cc1O", "IC50": "57.8 µM"}
{"molecule": "O=c1c(O)c(-c2ccc(O)cc2)oc2cc(O)cc(O)c12 [Kaempferol, kaempferol, reference compound]", "IC50": "116 µM"}
{"molecule": "CC1(C)C=Cc2cc(C(=O)/C=C/c3ccc(O)cc3)c(O)cc2O1 [Compound 3, 4-hydroxyisolonchocarpin]", "IC50": "203 µM"}
{"molecule": "COc1cc(O)ccc1CCCc1cc(O)c(O)c(CC=C(C)C)c1CC=C(C)C", "IC50": "64.2 µM"}

// data source = paper PMC6010046
